assay: Plasma pharmacokinetics, QD and BID cohorts (non-compartmental); assay type: in vivo, human; settings: human, plasma, oral, 150 mg, QD; C1D21; plasma; read-out: Cmax, Median
OBSERVABLE: Cmax (µg/mL)
Please give a number only; it is taken to be in µg/mL.

Cmax for Nc1ncc(-c2cnn(C3CCNCC3)c2)cc1-c1nnc(CC2CC2)o1 is 0.269

====

assay: Plasma pharmacokinetics, QD and BID cohorts (non-compartmental); type: in vivo, human; conditions: human, plasma, oral, 110 mg, 110 mg BID, C1D21, median, n=3, plasma; read-out: AUC0–last
OBSERVABLE: AUC(0-t)
Report field: quantity (unit follows the number).

AUC(0-t) for Nc1ncc(-c2cnn(C3CCNCC3)c2)cc1-c1nnc(CC2CC2)o1 is 2560 ng·h/mL

====

assay: Plasma pharmacokinetics, QD and BID cohorts (non-compartmental); assay type: in vivo, human; conditions: human, plasma, oral, 25 mg, QD; C1D21; plasma; read-out: AUC0–12, Median
OBSERVABLE: AUC

AUC for Nc1ncc(-c2cnn(C3CCNCC3)c2)cc1-c1nnc(CC2CC2)o1 is 0.232 µg·h/mL

====

assay: Plasma pharmacokinetics, QD and BID cohorts (non-compartmental); format: in vivo, human; conditions: human, plasma, oral, 175 mg, QD; C1D1; plasma; read-out: AUC0–last, Mean
OBSERVABLE: AUC(0-t) (ng·h/mL)
Please give a number only; it is taken to be in ng·h/mL.

AUC(0-t) for Nc1ncc(-c2cnn(C3CCNCC3)c2)cc1-c1nnc(CC2CC2)o1 is 1580

====

test: Plasma pharmacokinetics, QD and BID cohorts (non-compartmental); assay type: in vivo, human; details: human, plasma, oral, 25 mg, QD; C1D1; plasma; read-out: Cmax, Median
OBSERVABLE: Cmax

Cmax for Nc1ncc(-c2cnn(C3CCNCC3)c2)cc1-c1nnc(CC2CC2)o1 [SLC-391] is 39.6 ng/mL

====

experiment: Plasma pharmacokinetics, QD and BID cohorts (non-compartmental); assay type: in vivo, human; conditions: human, plasma, oral, 200 mg, 200 mg BID, C1D1, median, n=3, plasma; read-out: AUC0–last
OBSERVABLE: AUC(0-t) (ng·h/mL)
Please give a number only; it is taken to be in ng·h/mL.

AUC(0-t) for Nc1ncc(-c2cnn(C3CCNCC3)c2)cc1-c1nnc(CC2CC2)o1 is 2170

====

experiment: Plasma pharmacokinetics, QD and BID cohorts (non-compartmental); assay type: in vivo, human; details: human, plasma, oral, QD, 25 mg to 150 mg; C1D21; read-out: mean Cmax, range across cohorts
OBSERVABLE: Cmax

Cmax for Nc1ncc(-c2cnn(C3CCNCC3)c2)cc1-c1nnc(CC2CC2)o1 is 41.9 to 436 ng/mL

====

assay: Plasma pharmacokinetics, QD and BID cohorts (non-compartmental); format: in vivo, human; details: human, plasma, oral, 25 mg, QD; C1D1; plasma; read-out: AUC0–12, Median
OBSERVABLE: AUC (ng·h/mL)
Please give a number only; it is taken to be in ng·h/mL.

AUC for Nc1ncc(-c2cnn(C3CCNCC3)c2)cc1-c1nnc(CC2CC2)o1 is 211

====

assay: Plasma pharmacokinetics, QD and BID cohorts (non-compartmental); assay type: in vivo, human; conditions: human, plasma, oral, 125 mg, QD; C1D21; plasma; read-out: Cmax, Median
OBSERVABLE: Cmax (ng/mL)
Please give a number only; it is taken to be in ng/mL.

Cmax for Nc1ncc(-c2cnn(C3CCNCC3)c2)cc1-c1nnc(CC2CC2)o1 is 188
